target: Receptor tyrosine-protein kinase erbB-2 (Homo sapiens) (UniProt P04626); experiment: reducers of endogenous Her2 protein level, primary screen, SKBR3 breast tumor cells, AlphaScreen, ATP viability (AID 461); settings: 18-24 h, at 10 µM, stronger effect = lower value;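 further: lower value means less Her2 protein in the cells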
Sequence (P04626 whole entry, looked up): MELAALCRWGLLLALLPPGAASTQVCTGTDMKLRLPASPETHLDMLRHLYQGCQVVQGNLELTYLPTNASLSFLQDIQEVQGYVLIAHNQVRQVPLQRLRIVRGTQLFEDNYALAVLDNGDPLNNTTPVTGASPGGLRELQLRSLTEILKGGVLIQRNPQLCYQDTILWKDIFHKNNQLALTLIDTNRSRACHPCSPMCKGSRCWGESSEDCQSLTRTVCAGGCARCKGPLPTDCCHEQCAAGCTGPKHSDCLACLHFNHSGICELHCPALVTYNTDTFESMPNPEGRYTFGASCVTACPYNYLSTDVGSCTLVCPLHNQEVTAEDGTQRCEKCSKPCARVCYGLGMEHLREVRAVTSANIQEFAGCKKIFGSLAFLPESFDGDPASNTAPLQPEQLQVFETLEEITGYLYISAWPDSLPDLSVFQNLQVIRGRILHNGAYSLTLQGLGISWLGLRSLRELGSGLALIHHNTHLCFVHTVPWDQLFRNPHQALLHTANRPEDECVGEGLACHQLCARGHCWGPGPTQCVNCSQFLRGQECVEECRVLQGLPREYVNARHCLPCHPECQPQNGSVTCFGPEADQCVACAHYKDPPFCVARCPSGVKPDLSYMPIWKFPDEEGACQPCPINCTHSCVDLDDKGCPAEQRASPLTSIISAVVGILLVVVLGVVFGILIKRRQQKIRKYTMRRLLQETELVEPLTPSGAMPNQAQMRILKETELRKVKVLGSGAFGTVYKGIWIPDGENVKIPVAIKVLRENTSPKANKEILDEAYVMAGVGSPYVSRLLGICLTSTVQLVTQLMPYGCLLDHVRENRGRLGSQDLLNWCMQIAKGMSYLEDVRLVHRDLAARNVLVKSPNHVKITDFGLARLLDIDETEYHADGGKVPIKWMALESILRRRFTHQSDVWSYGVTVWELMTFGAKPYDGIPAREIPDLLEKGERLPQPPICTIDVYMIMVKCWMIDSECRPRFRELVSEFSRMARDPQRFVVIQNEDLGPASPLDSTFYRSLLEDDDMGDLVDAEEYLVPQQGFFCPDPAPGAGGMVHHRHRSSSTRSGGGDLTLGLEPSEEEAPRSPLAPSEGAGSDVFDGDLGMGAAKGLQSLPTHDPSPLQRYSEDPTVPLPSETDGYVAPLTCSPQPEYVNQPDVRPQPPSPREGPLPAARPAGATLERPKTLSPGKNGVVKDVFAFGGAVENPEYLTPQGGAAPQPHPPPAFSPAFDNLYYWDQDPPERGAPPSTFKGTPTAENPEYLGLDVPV
Outcome Measure: Her2 level (%)

{"Given Smiles": "CCc1nn2c(N3CCOCC3)cc(C)nc2c1-c1ccc(F)cc1", "Target System": "Receptor tyrosine-protein kinase erbB-2 (Homo sapiens) (UniProt P04626)", "Numeric Readout": 84}
{"Given Smiles": "CCN(CC)S(=O)(=O)c1ccc2oc(SCc3ccc(F)cc3)nc2c1", "Target System": "Receptor tyrosine-protein kinase erbB-2 (Homo sapiens) (UniProt P04626)", "Numeric Readout": 82.5}
{"Given Smiles": "FC(F)(F)c1cc(-c2ccco2)nc(N2CCOCC2)n1", "Target System": "Receptor tyrosine-protein kinase erbB-2 (Homo sapiens) (UniProt P04626)", "Numeric Readout": 80.5}

====

experiment: reversal of MRP1-mediated doxorubicin resistance, pilot screen, H69AR cells, doxorubicin co-treatment (AID 601); conditions: H69AR cells + 2 uM doxorubicin, CellTiter-Glo, 72 h; measured here: viability with 2 uM doxorubicin; at 10 µM; stronger effect = lower value
Outcome Measure: viability (%)

{"Compound": "O=C(Nc1ccc(Br)cc1F)c1sccc1-n1cccc1", "Unit Label": "%", "Numeric Readout": 81.7}
{"Compound": "Cc1ccccc1C(=O)NC1CCN(CC(=O)Nc2nccs2)CC1", "Unit Label": "%", "Numeric Readout": 86.2}
{"Compound": "Cc1ccc(NC(=O)c2cc(S(=O)(=O)N3CCC4(CC3)OCCO4)ccc2F)cc1", "Unit Label": "%", "Numeric Readout": 96.7}
{"Compound": "CC(C)CNC(=O)C1C2C=CC(C2)C1C(=O)O (stereo not drawn)", "Unit Label": "%", "Numeric Readout": 102}
{"Compound": "CCOc1ccccc1N1CCN(c2nc(N)c(C#N)c(CC#N)c2C#N)CC1", "Unit Label": "%", "Numeric Readout": 84.5}
{"Compound": "Cc1nnc(SCc2cnc(-c3ccccc3)o2)[nH]c1=O", "Unit Label": "%", "Numeric Readout": 85.8}
{"Compound": "c1nnc(NC2=NCCCCC2)s1", "Unit Label": "%", "Numeric Readout": 98.5}
{"Compound": "Cc1cc(O)c(C(C)C)cc1N=C1CSC(=O)N1", "Unit Label": "%", "Numeric Readout": 86}
{"Compound": "Cc1cccc(-c2cc3nc4c(c(N5CCC6(CC5)OCCO6)n3n2)CCCC4)c1", "Unit Label": "%", "Numeric Readout": 93}
{"Compound": "Clc1ccc(OCc2nc(-c3ccccn3)no2)c(Br)c1", "Unit Label": "%", "Numeric Readout": 98.4}
{"Compound": "COc1cccc(-c2csc3nnc(SCC(=O)c4ccc(NC(C)=O)cc4)n23)c1", "Unit Label": "%", "Numeric Readout": 99.8}
{"Compound": "CN(C)/C=N/c1ncnc2c1cnn2-c1ccc(C(F)(F)F)cn1", "Unit Label": "%", "Numeric Readout": 82.3}
{"Compound": "CC1CC(=O)C2=C(C1)OC(N)=C(C#N)C2c1coc2ccccc2c1=O (stereo not drawn)", "Unit Label": "%", "Numeric Readout": 86.7}
{"Compound": "COc1cc(OC)c(C(=O)Nc2ccc(N(C)C)cc2)cc1OC", "Unit Label": "%", "Numeric Readout": 93.4}
{"Compound": "C=CCNC(=O)c1cccc(Br)c1", "Unit Label": "%", "Numeric Readout": 101}
{"Compound": "CCOc1ccc(NCCC(=O)c2ccc3c(c2)OCO3)cc1", "Unit Label": "%", "Numeric Readout": 79.6}
{"Compound": "O=C1CCc2nc3sc4c(c3c(=O)n2N1)CCCC4", "Unit Label": "%", "Numeric Readout": 90.2}
{"Compound": "CCn1c(Cc2ccc(OC)cc2)nnc1SCC(=O)Nc1cccc(C(=O)OC)c1", "Unit Label": "%", "Numeric Readout": 95.7}

====

experiment: reversal of MRP1-mediated doxorubicin resistance, pilot screen, H69AR cells, doxorubicin co-treatment (AID 601); conditions: H69AR cells, CellTiter-Glo, 72 h; compound alone cytotoxicity; at 10 µM
Catalogue of viability values
Outcome Measure: viability (%)

{"Compound": "CCSc1nnc(NC(=O)CSc2nnc(Cc3cccn3C)n2-c2ccc(C)cc2)s1", "Outcome Measure": "viability", "Numeric Readout": 88.8}
{"Compound": "Cc1ccccc1N1OC2C(=O)N(c3ccc(F)cc3)C(=O)C2C1c1ccccn1 (configuration not stated)", "Outcome Measure": "viability", "Numeric Readout": 91.4}
{"Compound": "O=C(NC1CCCCCC1)C1c2ccccc2C(=O)N1Cc1cccnc1 (configuration not stated)", "Outcome Measure": "viability", "Numeric Readout": 90.1}
{"Compound": "CCSc1nnc(-c2cccs2)o1", "Outcome Measure": "viability", "Numeric Readout": 92.3}
{"Compound": "Cc1nnc(SCC(=O)N2c3ccccc3CC2C)s1 (configuration not stated)", "Outcome Measure": "viability", "Numeric Readout": 92}
{"Compound": "O=C(COc1ncnc2ccccc12)NCc1ccc2c(c1)OCO2", "Outcome Measure": "viability", "Numeric Readout": 92.6}
{"Compound": "CCC(=O)/C=C1\\Sc2ccc(OC)cc2N1CCO", "Outcome Measure": "viability", "Numeric Readout": 87.8}
{"Compound": "Cn1cnnc1SCC(=O)Nc1sc2c(c1C#N)CCCCC2", "Outcome Measure": "viability", "Numeric Readout": 95.2}
{"Compound": "COc1ccccc1Nc1nc(N)nc(CN2CCN(c3ccccc3F)CC2)n1", "Outcome Measure": "viability", "Numeric Readout": 81.3}
{"Compound": "COC(=O)c1ccccc1NC(=O)CSc1nnnn1C1CCCCC1", "Outcome Measure": "viability", "Numeric Readout": 85.9}
{"Compound": "CCOc1ccc(NCCC(=O)c2ccc3c(c2)OCO3)cc1", "Outcome Measure": "viability", "Numeric Readout": 66.1}
{"Compound": "O=S(=O)(Nc1cccnc1)c1cc(Cl)ccc1Cl", "Outcome Measure": "viability", "Numeric Readout": 82.8}
{"Compound": "O=C(c1cc2cc(Cl)cc(Cl)c2oc1=O)N1CCOCC1", "Outcome Measure": "viability", "Numeric Readout": 88.4}
{"Compound": "O=C(Nc1cccc(C(F)(F)F)c1)c1cccnc1N1CCCC1", "Outcome Measure": "viability", "Numeric Readout": 95}
{"Compound": "C=CCOc1ccc(/C(O)=C2\\C(=O)C(=O)N(CCOC)C2c2cccnc2)cc1 (configuration not stated)", "Outcome Measure": "viability", "Numeric Readout": 103}
{"Compound": "N#Cc1nc(-c2ccco2)oc1N1CCN(c2cccc(Cl)c2)CC1", "Outcome Measure": "viability", "Numeric Readout": 90}
{"Compound": "Cc1ccccc1CN1CCN(CC(=O)NCc2ccccc2)C1=O", "Outcome Measure": "viability", "Numeric Readout": 89.9}
{"Compound": "Cc1ccc(NC(=O)CN2CC(C)SC2=NC2CCCCC2)cc1 (configuration not stated)", "Outcome Measure": "viability", "Numeric Readout": 83.9}
{"Compound": "COc1ccc(NC(=O)c2cc(C(C)C)on2)c(OC)c1", "Outcome Measure": "viability", "Numeric Readout": 88}
{"Compound": "Cc1nc2ccccn2c1P(=O)(N1CCCCC1)N1CCCCC1", "Outcome Measure": "viability", "Numeric Readout": 91}
{"Compound": "COc1cc2c(c(OC)c1)C(c1ccncc1)CC(=O)N2 (configuration not stated)", "Outcome Measure": "viability", "Numeric Readout": 111}
{"Compound": "CCN(CC)CCOC(=O)c1c(C)oc2ccc(O)cc12", "Outcome Measure": "viability", "Numeric Readout": 95}
{"Compound": "COc1ccccc1CN1CC(C(=O)N2CCN(c3ccc(F)cc3)CC2)CC1=O (configuration not stated)", "Outcome Measure": "viability", "Numeric Readout": 88.8}
{"Compound": "CS(=O)(=O)N(CC(=O)NCc1ccccn1)c1ccc2c(c1)OCCO2", "Outcome Measure": "viability", "Numeric Readout": 97.8}
{"Compound": "COc1ccc(-n2ccnc2SCC(=O)NCc2ccc3c(c2)OCO3)cc1", "Outcome Measure": "viability", "Numeric Readout": 87.2}
{"Compound": "CCC(C(=O)O)n1c(C(F)(F)F)nc2ccccc21 (configuration not stated)", "Outcome Measure": "viability", "Numeric Readout": 103}
{"Compound": "CCSc1nnc(NC(=O)c2nn(C(C)C)c(=O)c3ccccc23)s1", "Outcome Measure": "viability", "Numeric Readout": 79.4}

====

test: HUVEC growth inhibition – cell-based, human, primary screen (AID 575); conditions: HUVEC proliferation, CellTiter-Glo luminescence, 72 h; at 10 µM; stronger effect = lower value;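 further: 100% = median of untreated cell wells with 0.1% DMSO on each plate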
Consider the cut-off 90%. If the recorded viability is strictly smaller, the label is Yes; if not, the label is No.

{"Compound": "Cc1cc(C(F)(F)F)nn1Cc1ccc(C(=O)NCc2ccco2)o1", "Category Label": "No"}
{"Compound": "Cc1nn(-c2ccc(Cl)cc2)c2sc(C(=O)N3CCN(c4ccccn4)CC3)cc12", "Category Label": "Yes"}
{"Compound": "CCOC(=O)c1sc(N)c(C(=O)OCC)c1COC(=O)C1CC(=O)N(Cc2ccco2)C1 (stereo not drawn)", "Category Label": "Yes"}
{"Compound": "Cc1nc(CNS(=O)(=O)c2ccc3c(c2)OCCO3)cs1", "Category Label": "No"}
{"Compound": "O=S(=O)(NCC(c1cccnc1)N1CCN(c2ccccc2)CC1)c1cc(F)ccc1F (stereo not drawn)", "Category Label": "Yes"}
{"Compound": "COc1ccc(-c2cc3n(n2)CCc2nc4ccccc4n2-3)cc1", "Category Label": "Yes"}
{"Compound": "O=C(Oc1cccc2cccnc12)c1cccc(-n2cnnn2)c1", "Category Label": "Yes"}
{"Compound": "O=C(CNS(=O)(=O)c1ccc(Br)s1)N1CCCC1", "Category Label": "No"}
{"Compound": "CCN(CCCNC(=O)c1cn(CC)c2ccc(S(=O)(=O)N(C)C)cc2c1=O)c1cccc(C)c1", "Category Label": "Yes"}
{"Compound": "CCCN(CCC)C(=O)CSc1nc2ccccc2c(=O)n1C1CCCC1", "Category Label": "Yes"}
